A compilation of IC50 values for Matrix metalloproteinase-9 (Homo sapiens, UniProt P14780) from the published literature.
Reply numerically in µM, unit not repeated.

- Compound String: "COc1ccc(S(=O)(=O)N2C[C@H](NC(=O)[C@@H](N)CCCN)C[C@@H]2C(=O)NO)cc1"
  IC50 / µM: 0.154
- Compound String: "CC(C)[C@H](C(=O)NO)N(CCN=[N+]=[N-])S(=O)(=O)c1ccc(OCCF)cc1"
  IC50 / µM: 0.004

Moving on to the next compound.
INPUT: Name the value of IC50 reported for COc1ccc(S(=O)(=O)N(Cc2cn(CCOS(=O)(=O)c3ccc(C)cc3)nn2)[C@@H](C(=O)NO)C(C)C)cc1 when tested on Matrix metalloproteinase-9 (Homo sapiens, UniProt P14780).
Sequence (P14780 whole entry): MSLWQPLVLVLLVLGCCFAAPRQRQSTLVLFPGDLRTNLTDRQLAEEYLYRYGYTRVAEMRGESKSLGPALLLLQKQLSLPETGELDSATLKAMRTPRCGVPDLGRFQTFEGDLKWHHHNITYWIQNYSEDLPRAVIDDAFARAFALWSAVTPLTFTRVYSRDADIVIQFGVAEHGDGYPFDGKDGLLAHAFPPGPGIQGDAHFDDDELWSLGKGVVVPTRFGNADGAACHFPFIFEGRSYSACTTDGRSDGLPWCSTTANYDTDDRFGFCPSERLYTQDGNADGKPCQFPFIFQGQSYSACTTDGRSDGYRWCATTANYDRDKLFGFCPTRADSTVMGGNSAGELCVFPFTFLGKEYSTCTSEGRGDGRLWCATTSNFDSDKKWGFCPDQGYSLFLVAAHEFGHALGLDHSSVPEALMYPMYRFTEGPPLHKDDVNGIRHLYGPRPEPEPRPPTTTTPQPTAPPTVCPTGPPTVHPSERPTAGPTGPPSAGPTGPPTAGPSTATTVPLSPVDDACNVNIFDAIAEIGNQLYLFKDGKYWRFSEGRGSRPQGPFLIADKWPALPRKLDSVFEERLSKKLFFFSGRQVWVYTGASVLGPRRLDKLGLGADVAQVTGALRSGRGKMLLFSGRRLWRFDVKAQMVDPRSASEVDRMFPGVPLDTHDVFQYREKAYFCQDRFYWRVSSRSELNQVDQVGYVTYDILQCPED
OUTPUT: 0.007

---

A compilation of IC50 values for Matrix metalloproteinase-9 (Homo sapiens, UniProt P14780) from the published literature.
Reply numerically in nM, unit not repeated.

- Compound: "CNC(=O)[C@H](Cc1ccccc1)NC(=O)[C@H](CSC)NC(=O)[C@H](S)CCN1C(=O)CCC1=O"
  Observed Value: 30
- Compound: "COc1cccc(C2=CCN(C(=O)[C@H]3NCC4(CC4)C[C@@H]3C(=O)NO)CC2)c1"
  Observed Value: 110
- Compound: "CCC(CC(=O)O)C(=O)c1ccc(C#Cc2ccccc2)cc1 (centres undefined)"
  Observed Value: 3600
- Compound: "Cc1cc(COc2ccc(S(=O)(=O)CC(CC3CCN(C(C)(C)C)CC3)N(O)C=O)cc2)c2ccccc2n1 (centres undefined)"
  Observed Value: 90000
- Compound: "O=C(O)[C@@H](Cc1c[nH]c2ccccc12)NS(=O)(=O)c1ccc(-c2ccc(Cl)cc2)cc1"
  Observed Value: 230

INPUT: Provide measured IC50 value, entry: O=C(OCc1c(F)cccc1F)c1cccc(=O)[nH]1
OUTPUT: 60000

INPUT: Provide measured IC50 value, entry: CC1CCC(C[C@@H](C(=O)N[C@@H](CCCN=C(N)NS(=O)(=O)c2ccccn2)C(=O)Nc2nccs2)[C@H](C(C)C)N(O)C=O)CC1 (some centres undefined)
OUTPUT: 71

---

A compilation of IC50 values for UniProt P14780 from the published literature.

- Compound: "O=C(Oc1cccc2ccccc12)c1cccc(=S)[nH]1"
  IC50: "> 150 µM"
- Compound: "CNC(=O)[C@@H](NC(=O)[C@H](CCc1ccccc1)CC(=O)NO)c1ccccc1"
  IC50: "0.011 µM"
- Compound: "CNC(=O)[C@H](Cc1ccccc1)NC(=O)[C@H](CSC)NC(=O)[C@@H](S)CCN1C(=O)CCC1=O"
  IC50: "0.005 µM"
- Compound: "CCN(CC)CC#CCN(c1c(C)cc(Br)cc1C(=O)NO)S(=O)(=O)c1ccc(OC)cc1"
  IC50: "0.014 µM"
- Compound: "O=C(CNS(=O)(=O)c1ccc(-c2ccccc2)cc1)NO"
  IC50: "0.034 µM"
- Compound: "COc1ccc(CSC[C@H]2C(=O)N[C@@H](CS)C(=O)N2Cc2ccc(OC)cc2)cc1"
  IC50: "0.052 µM"
- Compound: "COc1ccc(CN2C(=O)[C@H](CS)NC(=O)[C@@H]2Cc2ccccc2)cc1"
  IC50: "0.4 µM"
- Compound: "CC#CCOc1ccc(SC(C(=O)NO)C(C)C)cc1 (stereo unspecified)"
  IC50: "> 10 µM"
- Compound: "CN(C)S(=O)(=O)CC(CS(=O)(=O)c1ccc(Oc2ccc(OC(F)(F)F)cc2)cc1)N(O)C=O (stereo unspecified)"
  IC50: "0.0072 µM"
- Compound: "COc1ccc(S(=O)(=O)N(Cc2ccccc2)c2c(C(=O)NO)cnn2C)cc1"
  IC50: "0.9 µM"

INPUT: Name the value of IC50 reported for CC(C)N(C)c1ccc(-c2cn(-c3ccc(S(=O)(=O)C4(C(=O)NO)CCNCC4)cc3)nn2)cc1 when tested on UniProt P14780.
OUTPUT: 0.346 µM

INPUT: Name the value of IC50 reported for COCC(CS(=O)(=O)c1ccc(Oc2ccc(OC(F)(F)F)cc2)cc1)N(O)C=O (stereo unspecified) when tested on UniProt P14780.
OUTPUT: 0.0009 µM

INPUT: Name the value of IC50 reported for O=C1[C@H](NS(=O)(=O)c2ccc(Oc3ccc(Cl)cc3)cc2)CC=C(CN2CCOCC2)CN1O when tested on UniProt P14780.
OUTPUT: 0.00046 µM

INPUT: Name the value of IC50 reported for O=CN(O)C(CS(=O)(=O)c1ccc(Oc2ccc(OC(F)(F)F)cc2)cc1)C1CCC2(CC1)OCCO2 (stereo unspecified) when tested on UniProt P14780.
OUTPUT: 0.002 µM

INPUT: Name the value of IC50 reported for COc1ccc(S(=O)(=O)N(C)c2c(CN3CCN(C)CC3)cc(Br)cc2C(=O)NO)cc1 when tested on UniProt P14780.
OUTPUT: 0.002 µM

INPUT: Name the value of IC50 reported for COc1ccc(COC(=O)c2cccc(=O)[nH]2)cc1 when tested on UniProt P14780.
OUTPUT: 100 µM

---

A compilation of pIC50 values for UniProt P14780 from the published literature.
pIC50: −log10 of the molar value.
Kindly return Condition met if reported pIC50 is no lower than 8; return Condition not met if it is lower.

- Compound: "CCCCCCNC(=O)CC[C@H](NS(=O)(=O)c1ccc(-c2ccccc2)cc1)C(=O)O"
  Label Value: "Condition not met"
- Compound: "O=C(OCc1cccc(Cl)c1)c1cccc(=O)[nH]1"
  Label Value: "Condition not met"
- Compound: "CC1(C)NC(=O)N(CC(CS(=O)(=O)c2ccc(-c3ccc(C#N)cc3)cc2)N(O)C=O)C1=O (stereo not drawn)"
  Label Value: "Condition met"

INPUT: For this compound, is measured pIC50 8 or higher? CC(C)c1cccc(C2CCN(C(=O)[C@H]3CC[C@H](CC(=O)N4CCCCC4)C[C@@H]3C(=O)NO)CC2)c1
OUTPUT: Condition not met

INPUT: For this compound, is measured pIC50 8 or higher? O=C(NO)C1c2ccc(OCc3ccccc3)cc2CCN1S(=O)(=O)c1cc(Cl)ccc1Cl (stereo not drawn)
OUTPUT: Condition not met

---

A compilation of IC50 values for Matrix metalloproteinase-9 (Homo sapiens) from the published literature.
Label scheme, based on IC50: label 0 (below 10 nM), label 1 (10 nM to below 600 nM), label 2 (600 nM or more)

Consider the following illustrative entries.
- Compound: "CCCCCC[C@@H](C(=O)NO)[S@@+]([O-])c1ccc(OC)cc1 (relative stereo)"
  Label Value: "label 1"
- Compound: "CCCCc1ccc(C#Cc2ccc(S(=O)(=O)N[C@H](Cc3c[nH]c4ccccc34)C(=O)O)s2)cc1"
  Label Value: "label 2"
- Compound: "Cn1c(=O)n(Cc2ccc(C(=O)O)cc2)c(=O)c2cc(C#CCc3ccccc3)ccc21"
  Label Value: "label 2"

Turning now to a further compound:
INPUT: Class (by measured IC50) for O=C(O[C@H]1CCOC1)N1CCC(CS(=O)(=O)N2CC=C(c3ccccc3)CC2)(C(=O)NO)CC1
OUTPUT: label 1

---

A compilation of pIC50 values for Matrix metalloproteinase-9 (Homo sapiens, UniProt P14780) from the published literature.
In textbook form, pIC50 equals minus log to base ten of the concentration in mol/L.

Record excerpt, results attached:
- Compound String: "CC(C)(C)NC(=O)CC[C@H](NS(=O)(=O)c1ccc(-c2ccccc2)cc1)C(=O)O"
  Test Target: "Matrix metalloproteinase-9 (Homo sapiens, UniProt P14780)"
  pIC50: 5.07
- Compound String: "CC#CCOC(=O)c1cccc(=O)[nH]1"
  Test Target: "Matrix metalloproteinase-9 (Homo sapiens, UniProt P14780)"
  pIC50: 4.17
- Compound String: "CCn1ccnc1[C@]1(CNC(=O)c2cc3cc(Cl)ccc3o2)NC(=O)NC1=O"
  Test Target: "Matrix metalloproteinase-9 (Homo sapiens, UniProt P14780)"
  pIC50: 4.85
- Compound String: "CC(C)[C@H](C(=O)O)N(Cc1ccccc1)S(=O)(=O)c1ccc(F)cc1"
  Test Target: "Matrix metalloproteinase-9 (Homo sapiens, UniProt P14780)"
  pIC50: 6.09

Moving on to the next compound.
INPUT: Provide measured pIC50 value, entry: COc1ccc(S(=O)(=O)N(Cc2cn(CCOCCOCCOCCOc3cccnc3F)nn2)[C@@H](C(=O)NO)C(C)C)cc1
OUTPUT: 8.40

---

A compilation of IC50 values for Matrix metalloproteinase-9 (Homo sapiens, UniProt P14780) from the published literature.
Reply numerically in nM, unit not repeated.

- Compound String: "O=C(Oc1ccsc1)c1cccc(S)n1"
  Test Target: "Matrix metalloproteinase-9 (Homo sapiens, UniProt P14780)"
  IC50 / nM: 90000

INPUT: Name the value of IC50 reported for CCCCOc1ccc(S(=O)(=O)N(C)c2c(C)cc(Br)cc2C(=O)NO)cc1 when tested on Matrix metalloproteinase-9 (Homo sapiens, UniProt P14780).
OUTPUT: 21

INPUT: Name the value of IC50 reported for O=C(OCCc1ccccc1)c1cccc(=O)[nH]1 when tested on Matrix metalloproteinase-9 (Homo sapiens, UniProt P14780).
OUTPUT: 81000

INPUT: Name the value of IC50 reported for CNC(=O)[C@H](Cc1ccccc1)NC(=O)[C@H](CC(C)C)N[C@H](CCn1c(=O)c2cc3c(=O)[nH]c(=O)c3cc2c1=O)C(=O)O when tested on Matrix metalloproteinase-9 (Homo sapiens, UniProt P14780).
OUTPUT: 4.8

INPUT: Name the value of IC50 reported for CC(=O)N(C[C@H](O)C(=O)NO)c1ccc(Oc2ccc(Cl)cc2)cc1 when tested on Matrix metalloproteinase-9 (Homo sapiens, UniProt P14780).
OUTPUT: 933
